Provide the reported normalized RNA/DNA level without ligand (log10) of each item.
B1: library; a variant is named by its letters at N, in order (parent)
chain: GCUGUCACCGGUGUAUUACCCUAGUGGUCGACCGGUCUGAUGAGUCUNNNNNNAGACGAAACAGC

variants of: B1; experiment: normalized RNA/DNA level without ligand (relative to sTRSVctl = 100) (log10 (% of sTRSVctl)); ligand: hypoxanthine (xanthine aptamer); higher = less ribozyme self-cleavage, higher mRNA level; conditions: HEK293T, reporter: mCherry (pCS4076), ligand present: no
I only need the number, thanks.

Param item = GCUGUCACCGGUGUAUUACCCUAGUGGUCGACCGGUCUGAUGAGUCUUUGUGCAGACGAAACAGC [UUGUGC] ; retrieve measured normalized RNA/DNA level without ligand (log10).
1.99

Okay, and GCUGUCACCGGUGUAUUACCCUAGUGGUCGACCGGUCUGAUGAGUCUGCCAACAGACGAAACAGC [GCCAAC] ?
1.74

Repeat for the following variant: GCUGUCACCGGUGUAUUACCCUAGUGGUCGACCGGUCUGAUGAGUCUGAUGAUAGACGAAACAGC [GAUGAU]
1.77

Entry GCUGUCACCGGUGUAUUACCCUAGUGGUCGACCGGUCUGAUGAGUCUAAAUUAAGACGAAACAGC [AAAUUA] please
1.83

Repeat for the following variant: GCUGUCACCGGUGUAUUACCCUAGUGGUCGACCGGUCUGAUGAGUCUAUUACAAGACGAAACAGC [AUUACA]
1.78

GCUGUCACCGGUGUAUUACCCUAGUGGUCGACCGGUCUGAUGAGUCUAUGCGAAGACGAAACAGC [AUGCGA] , same question.
1.56

And GCUGUCACCGGUGUAUUACCCUAGUGGUCGACCGGUCUGAUGAGUCUUGGAUUAGACGAAACAGC [UGGAUU] ?
1.82

Next up: GCUGUCACCGGUGUAUUACCCUAGUGGUCGACCGGUCUGAUGAGUCUGUGAUUAGACGAAACAGC [GUGAUU]
1.85

Entry to check: GCUGUCACCGGUGUAUUACCCUAGUGGUCGACCGGUCUGAUGAGUCUAGAAAAAGACGAAACAGC [AGAAAA]
1.78

Okay, and GCUGUCACCGGUGUAUUACCCUAGUGGUCGACCGGUCUGAUGAGUCUGGAGCCAGACGAAACAGC [GGAGCC] ?
1.85

Try this variant too: GCUGUCACCGGUGUAUUACCCUAGUGGUCGACCGGUCUGAUGAGUCUCCAACAAGACGAAACAGC [CCAACA]
1.88

Item: GCUGUCACCGGUGUAUUACCCUAGUGGUCGACCGGUCUGAUGAGUCUGAGGACAGACGAAACAGC [GAGGAC]
1.65

Try GCUGUCACCGGUGUAUUACCCUAGUGGUCGACCGGUCUGAUGAGUCUGAAAUUAGACGAAACAGC [GAAAUU] next.
1.87

// repeat for GCUGUCACCGGUGUAUUACCCUAGUGGUCGACCGGUCUGAUGAGUCUUCGAGCAGACGAAACAGC [UCGAGC] and report
1.6

Now consider GCUGUCACCGGUGUAUUACCCUAGUGGUCGACCGGUCUGAUGAGUCUAUUUGAAGACGAAACAGC [AUUUGA] and answer again.
1.66
